Sourced from patent EP0302760A2

# PROTOCOL SUMMARY: Conversion of ddDAPR to ddG in whole blood
# Type: in vitro ADME
# EXPERIMENTAL SETUP: whole blood from a duck, in 5 minutes; read-out: ddDAPR metabolized to ddG
READOUT: metabolised at 5 min

Task: Please look up its metabolised at 5 min: Nc1nc(N)c2ncn([C@H]3CC[C@@H](CO)O3)c2n1 [ddDAPR, 2,6-diaminopurine 2′,3′-dideoxyriboside]
Result: > 95%

----------
# Test system: duck hepatitis B virus (DHBV)
# PROTOCOL SUMMARY: Dot blot hybridization of DHBV DNA from DHBV-infected primary duck hepatocyte cultures
# Assay type: cell-based
# EXPERIMENTAL SETUP: Duck hepatitis B virus, Hepatocyte, 480 h, read-out: PERCENTAGE INHIBITION, 10 µg/ml; densitometry scans of the dot hybridization at 20 days
For each record, write down the corresponding inhibition at 10 µg/mL.

Task: Please look up its inhibition at 10 µg/mL: Nc1ncnc2c1ncn2[C@@H]1O[C@H](CO)[C@@H](O)[C@@H]1O [araA, adenine arabinoside]
Result: ~63%

Task: Please do the same for Nc1ccn([C@H]2CC[C@@H](CO)O2)c(=O)n1 [ddC, 2′,3′-dideoxycytidine, reference compound] as well.
Result: ~57%

Task: Please do the same for `Nc1nc2c(ncn2[C@H]2CC[C@@H](CO)O2)c(=O)[nH]1` as well.
Result: > 99%

Task: Please do the same for `Nc1ncnc2c1ncn2[C@H]1CC[C@@H](CO)O1` as well.
Result: > 99%
